Each entry below carries its reported top.
Molecular target: T1, human CX3CR1 (human, UniProt P49238 1-355)
T1 construct: Overexpressed on CHO K1, Ba/F3 or HEK293T cells; also called huCX3CR1; hCX3CR1
T1 sequence: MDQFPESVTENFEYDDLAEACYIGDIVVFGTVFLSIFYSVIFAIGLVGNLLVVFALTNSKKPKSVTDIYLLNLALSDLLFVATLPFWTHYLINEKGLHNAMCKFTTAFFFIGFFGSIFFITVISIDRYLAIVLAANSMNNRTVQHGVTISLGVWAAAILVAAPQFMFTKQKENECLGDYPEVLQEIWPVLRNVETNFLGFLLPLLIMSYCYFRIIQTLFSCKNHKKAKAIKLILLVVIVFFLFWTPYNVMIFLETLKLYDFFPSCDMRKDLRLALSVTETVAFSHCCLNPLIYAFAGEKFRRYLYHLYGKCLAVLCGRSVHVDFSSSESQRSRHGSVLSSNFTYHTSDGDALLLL
Test: flow cytometry on CHO K1 huCX3CR1 cells, 30 uM HSA
The answer should be written as a number, with no unit following it.

Reference set, count: 3
binder="A041600010 (VHH, Trivalent ISVD construct (two anti-CX3CR1 ISVDs, one anti-albumin ISVD); also called 66B02_SO (E1D)-9GS-ALB23002-9GS-66B02_SO-A) DVQLVESGGGSVQPGGSLRLSCAASGSIFSSTAMAWYRQAPGKRRDLVAAINTVGVTKYADSVKGRFTISRDNAKNTVYLQMNSLRPEDTALYYCTSDPRRGWDTRYWGQGTLVTVSSGGGGSGGGSEVQLVESGGGVVQPGGSLRLSCAASGFTFRSFGMSWVRQAPGKGPEWVSSISGSGSDTLYADSVKGRFTISRDNSKNTLYLQMNSLRPEDTALYYCTIGGSLSRSSQGTLVTVSSGGGGSGGGSEVQLVESGGGSVQPGGSLRLSCAASGSIFSSTAMAWYRQAPGKRRDLVAAINTVGVTKYADSVKGRFTISRDNAKNTVYLQMNSLRPEDTALYYCTSDPRRGWDTRYWGQGTLVTVSSA" experimental_result=22800
binder="A041600034 (VHH, Trivalent ISVD construct; also called 54A12_SO (E1D)-9GS-ALB23002-9GS-66B02_SO-A) DVQLVESGGGSVQPGGSLRLSCAASGSIFSSTAMAWYRQAPGKQRDLVAVISTVGITKYADSVKGRFTISRDNAKNTVYLQMNSLRPEDTALYYCTSDARRGWDTRYWGQGTLVTVSSGGGGSGGGSEVQLVESGGGVVQPGGSLRLSCAASGFTFRSFGMSWVRQAPGKGPEWVSSISGSGSDTLYADSVKGRFTISRDNSKNTLYLQMNSLRPEDTALYYCTIGGSLSRSSQGTLVTVSSGGGGSGGGSEVQLVESGGGSVQPGGSLRLSCAASGSIFSSTAMAWYRQAPGKRRDLVAAINTVGVTKYADSVKGRFTISRDNAKNTVYLQMNSLRPEDTALYYCTSDPRRGWDTRYWGQGTLVTVSSA" experimental_result=28200
binder="A041600040 (VHH, Trivalent ISVD construct (two anti-CX3CR1 ISVDs, one anti-albumin ISVD), C-terminal alanine included in the entry; also called 66B02_SO (E1D)-9GS-54A12_SO-9GS-ALB23002-A) DVQLVESGGGSVQPGGSLRLSCAASGSIFSSTAMAWYRQAPGKRRDLVAAINTVGVTKYADSVKGRFTISRDNAKNTVYLQMNSLRPEDTALYYCTSDPRRGWDTRYWGQGTLVTVSSGGGGSGGGSEVQLVESGGGSVQPGGSLRLSCAASGSIFSSTAMAWYRQAPGKQRDLVAVISTVGITKYADSVKGRFTISRDNAKNTVYLQMNSLRPEDTALYYCTSDARRGWDTRYWGQGTLVTVSSGGGGSGGGSEVQLVESGGGVVQPGGSLRLSCAASGFTFRSFGMSWVRQAPGKGPEWVSSISGSGSDTLYADSVKGRFTISRDNSKNTLYLQMNSLRPEDTALYYCTIGGSLSRSSQGTLVTVSSA" experimental_result=42200

Now for another entry.
Ask: Please look up its top: A041600042 (VHH, Trivalent ISVD construct (two anti-CX3CR1 ISVDs, one anti-albumin ISVD), C-terminal alanine included in the entry; also called 66B02_SO (E1D)-20GS-66B02_SO-20GS-ALB23002-A) DVQLVESGGGSVQPGGSLRLSCAASGSIFSSTAMAWYRQAPGKRRDLVAAINTVGVTKYADSVKGRFTISRDNAKNTVYLQMNSLRPEDTALYYCTSDPRRGWDTRYWGQGTLVTVSSGGGGSGGGGSGGGGSGGGGSEVQLVESGGGSVQPGGSLRLSCAASGSIFSSTAMAWYRQAPGKRRDLVAAINTVGVTKYADSVKGRFTISRDNAKNTVYLQMNSLRPEDTALYYCTSDPRRGWDTRYWGQGTLVTVSSGGGGSGGGGSGGGGSGGGGSEVQLVESGGGVVQPGGSLRLSCAASGFTFRSFGMSWVRQAPGKGPEWVSSISGSGSDTLYADSVKGRFTISRDNSKNTLYLQMNSLRPEDTALYYCTIGGSLSRSSQGTLVTVSSA
Reply: 40000
